- assayed.target: mouse TRPM3α2 (mTRPM3) ion channel (Mus musculus, UniProt J9SQF3)
- Sequence (J9SQF3 1-1709 isoform J9SQF3-12): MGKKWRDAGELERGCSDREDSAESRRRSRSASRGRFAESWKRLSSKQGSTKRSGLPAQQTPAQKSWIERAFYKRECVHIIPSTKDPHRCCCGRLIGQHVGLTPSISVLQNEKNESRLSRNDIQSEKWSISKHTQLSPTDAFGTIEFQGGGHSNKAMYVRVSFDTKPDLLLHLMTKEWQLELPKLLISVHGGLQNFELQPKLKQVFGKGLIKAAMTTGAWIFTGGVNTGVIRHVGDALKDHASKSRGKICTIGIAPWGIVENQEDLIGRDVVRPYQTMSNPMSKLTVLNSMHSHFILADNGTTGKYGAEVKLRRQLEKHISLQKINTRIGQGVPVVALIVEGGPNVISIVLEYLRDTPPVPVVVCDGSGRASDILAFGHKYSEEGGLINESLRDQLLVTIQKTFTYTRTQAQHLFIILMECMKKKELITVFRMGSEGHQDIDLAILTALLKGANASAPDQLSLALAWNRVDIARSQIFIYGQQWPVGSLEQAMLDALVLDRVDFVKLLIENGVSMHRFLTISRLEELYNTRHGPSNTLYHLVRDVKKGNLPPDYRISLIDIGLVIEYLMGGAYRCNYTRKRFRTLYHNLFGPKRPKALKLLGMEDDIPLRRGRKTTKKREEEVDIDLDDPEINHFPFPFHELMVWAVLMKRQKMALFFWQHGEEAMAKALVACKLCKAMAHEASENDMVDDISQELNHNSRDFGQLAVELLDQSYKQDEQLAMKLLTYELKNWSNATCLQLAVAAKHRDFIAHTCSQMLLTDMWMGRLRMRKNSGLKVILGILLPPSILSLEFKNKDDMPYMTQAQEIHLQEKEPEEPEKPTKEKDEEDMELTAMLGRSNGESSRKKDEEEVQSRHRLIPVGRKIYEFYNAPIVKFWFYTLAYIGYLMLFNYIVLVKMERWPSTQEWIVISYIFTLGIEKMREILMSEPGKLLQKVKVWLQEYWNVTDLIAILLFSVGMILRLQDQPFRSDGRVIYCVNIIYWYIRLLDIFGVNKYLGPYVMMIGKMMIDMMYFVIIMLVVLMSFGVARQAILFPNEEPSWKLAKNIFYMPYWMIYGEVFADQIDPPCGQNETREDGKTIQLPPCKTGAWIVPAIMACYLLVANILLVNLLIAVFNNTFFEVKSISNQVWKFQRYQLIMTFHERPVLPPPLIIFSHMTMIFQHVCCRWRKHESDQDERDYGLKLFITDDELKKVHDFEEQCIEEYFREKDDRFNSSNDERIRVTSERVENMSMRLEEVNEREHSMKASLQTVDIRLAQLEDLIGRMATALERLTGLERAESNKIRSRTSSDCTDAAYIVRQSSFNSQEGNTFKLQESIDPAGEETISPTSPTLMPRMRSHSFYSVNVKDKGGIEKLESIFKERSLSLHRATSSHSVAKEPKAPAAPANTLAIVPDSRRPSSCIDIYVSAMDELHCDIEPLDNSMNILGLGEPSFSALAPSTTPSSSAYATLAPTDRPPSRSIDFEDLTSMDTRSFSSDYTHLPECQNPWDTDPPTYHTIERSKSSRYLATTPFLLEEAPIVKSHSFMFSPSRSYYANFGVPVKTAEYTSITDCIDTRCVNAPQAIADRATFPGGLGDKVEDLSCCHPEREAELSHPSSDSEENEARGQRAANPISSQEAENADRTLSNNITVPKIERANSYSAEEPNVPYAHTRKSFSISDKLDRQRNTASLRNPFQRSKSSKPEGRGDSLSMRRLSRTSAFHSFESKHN
- protocol.notes: Monitoring the TRPM3 ion channel driven Ca2+ uptake (Fluo-4 AM assay)
- condition.details: TRPM3 overexpressing flip-in HEK293 cells, channel stimulated with Pregnenolone sulfate (PS) 50 μM
pIC50: −log10 of the molar value.
Catalogue of pIC50 readings, one per entry.
experimental.endpoint: pIC50

> print(dat)
                                    compound  experimental.result
 1    O=C(O)c1c(C(F)F)sc2ccc(OCc3ccccc3)cc12               > 6.00
 2  Cc1ncc(COc2ccc3sc(C)c(C(=O)NC4(C(N)=O)CCOC4)c3c2)s1 (centres unmarked)               > 6.00
 3  Cc1sc2ccc(OCc3ccccc3)cc2c1C(=O)NCC(C)(C)O         4.70 to 6.00
 4  Cc1sc2ccc(OCc3cccnc3C(F)(F)F)cc2c1C(=O)NC1CC(F)(F)C1               < 4.70
 5  Cc1sc2ccc(OCc3ccccc3F)cc2c1C(=O)NC1(CO)CC1               > 6.00
 6  Cc1sc2ccc(OCc3cccnc3O)cc2c1C(=O)N[C@@H](C)C(N)=O               > 6.00
 7  Cc1ncsc1COc1ccc2sc(C)c(C(=O)NC3(CO)CCOCC3)c2c1               > 6.00
 8  Cc1ncsc1COc1ccc2sc(C)c(C(=O)N[C@@H](C)C(N)=O)c2c1               > 6.00
 9  COc1ncccc1COc1ccc2sc(C)c(C(=O)NC(C)(C)C(N)=O)c2c1               > 6.00
10  Cc1sc2ccc(OCc3cccnc3C(F)(F)F)cc2c1C(=O)NCCN1CCOC1=O         4.70 to 6.00
11  Cc1ncsc1COc1ccc2sc(C)c(C(=O)NC3CC(F)(F)C3)c2c1               > 6.00
12  Cc1ncsc1COc1ccc2sc(C)c(C(=O)NCC3(N(C)C)CCCC3)c2c1               > 6.00
13  COc1ncccc1COc1ccc2sc(C)c(C(=O)N[C@@H](CO)C(N)=O)c2c1               > 6.00
14  Cc1sc2ccc(OCc3ccccn3)cc2c1C(=O)NC1(CO)COC1               > 6.00
15  O=C1CCC(CNC(=O)c2c(C(F)F)sc3ccc(OCc4ccccc4)cc23)N1 (centres unmarked)               < 4.70
16  Cc1sc2ccc(OCc3ccccc3)cc2c1C(=O)NC1(CO)CCOCC1         4.70 to 6.00
17  CNC(=O)C1(NC(=O)c2c(C)sc3ccc(OCc4cnc(C)s4)cc23)CCOC1 (single isomer, unassigned) [Cpd 133 - En2]               > 6.00
18              CCOC(=O)c1c(C)sc2ccc(OC)cc12               < 4.70
19  Cc1sc2ccc(OCc3cccnc3C(F)(F)F)cc2c1C(=O)NCC(C)(C)O               > 6.00
20  Cc1sc2ccc(OCc3ccccn3)cc2c1C(=O)NC1(C(N)=O)CCOCC1               > 6.00
21  COc1ncccc1COc1ccc2sc(C)c(C(=O)N[C@H](C)C(N)=O)c2c1               > 6.00
22  Cn1ccc(NC(=O)c2c(C(F)F)sc3ccc(OCc4ccccc4)cc23)n1         4.70 to 6.00
23  Cc1sc2ccc(OCc3cccnc3C(F)(F)F)cc2c1C(=O)NC1CCN(C)C1 (centres unmarked)               > 6.00
24  O=C(NCc1cccc(O)n1)c1c(C(F)F)sc2ccc(OCc3ccccc3)cc12               < 4.70
25  Cc1ncc(COc2ccc3sc(C)c(C(=O)NC(C)(C)C(N)=O)c3c2)s1               > 6.00
26  Cc1sc2ccc(OCc3cccnc3C(F)(F)F)cc2c1C(=O)NC1CCOC1 (centres unmarked)               > 6.00
27  Cc1sc2ccc(OCc3ccccc3)cc2c1C(=O)NC1CCN(C)CC1         4.70 to 6.00
28  Cc1ncsc1COc1ccc2sc(C)c(C(=O)NC3(CO)CC3)c2c1               > 6.00
29  O=C(NCCN1CCOC1=O)c1c(C(F)F)sc2ccc(OCc3ccccc3)cc12               < 4.70
